Numbers sourced from patent US20250127801A1.

Quick list: CC50 at 5 days per entry.
assay-details: in vitro
applied-conditions: human, uninfected MT-4 cells
recorded-endpoint: CC50 at 5 days (µM)

1. CC1=NO[C@@]2(CC[C@H](C)N3C[C@H]2n2cc(C(=O)NCc4ccc(F)cc4F)c(=O)c(OCOC(=O)N(C)c4ncccc4COC(=O)[C@H](C)N)c2C3=O)C1 :: 14.5
2. CC1=NO[C@@]2(CC[C@H](C)N3C[C@H]2n2cc(C(=O)NCc4ccc(F)cc4F)c(=O)c(OCOC(=O)O[C@@H]4CCCC[C@@H]4OP(=O)(O)O)c2C3=O)C1 :: 21.6
3. CC1=NO[C@@]2(CC[C@H](C)N3C[C@H]2n2cc(C(=O)NCc4ccc(F)cc4F)c(=O)c(OCOC(=O)O[C@H]4CCCC[C@H]4COP(=O)(O)O)c2C3=O)C1 :: 35.7
4. CC1=NO[C@@]2(CC[C@H](C)N3C[C@H]2n2cc(C(=O)NCc4ccc(F)cc4F)c(=O)c(OCc4oc(=O)oc4C)c2C3=O)C1 :: 12.4
5. CC1=NO[C@@]2(CC[C@H](C)N3C[C@H]2n2cc(C(=O)NCc4ccc(F)cc4F)c(=O)c(OCOC(=O)OC[C@@H]4C[C@@H]4COP(=O)(O)O)c2C3=O)C1 :: 23.3
6. CC1=NO[C@@]2(CC[C@H](C)N3C[C@H]2n2cc(C(=O)NCc4ccc(F)cc4F)c(=O)c(OCOC(=O)[C@H]4[C@@H](COP(=O)(O)O)[C@@H]4C(=O)O)c2C3=O)C1 :: 12.5
7. CC1=NO[C@@]2(CC[C@H](C)N3C[C@H]2n2cc(C(=O)NCc4ccc(F)cc4F)c(=O)c(OCOC(=O)O[C@@H]4CCCC[C@H]4OP(=O)(O)O)c2C3=O)C1 :: 11.4
8. COC1=NO[C@@]2(CC[C@H](C)N3C[C@H]2n2cc(C(=O)NCc4ccc(F)cc4F)c(=O)c(OCOC(=O)N(C)c4ncccc4COP(=O)(O)O)c2C3=O)C1 :: 12.6
9. COC1=NO[C@@]2(CC[C@H](C)N3C[C@H]2n2cc(C(=O)NCc4ccc(F)cc4F)c(=O)c(OCOC(=O)N(C)C[C@@H]4CCCN4C(=O)OCOP(=O)(O)O)c2C3=O)C1 :: 16
10. CC1=NO[C@@]2(CC[C@H](C)N3C[C@H]2n2cc(C(=O)NCc4ccc(F)cc4F)c(=O)c(OCOC(=O)N(C)c4ncccc4CN(CC(=O)O)C(=O)OCOP(=O)(O)O)c2C3=O)C1 :: 10.8

---

assay-details: in vitro
applied-conditions: human
Quick list: CC50 per entry.
recorded-endpoint: CC50 (µM)

1) CC1=NO[C@@]2(CC[C@H](C)N3C[C@H]2n2cc(C(=O)NCc4ccc(F)cc4F)c(=O)c(OCOC(=O)CC(C)(C)c4c(C)cc(C)cc4OP(=O)(O)O)c2C3=O)C1 [Compound 27] :: 16.9
2) CC1=NO[C@@]2(CC[C@H](C)N3C[C@H]2n2cc(C(=O)NCc4ccc(F)cc4F)c(=O)c(OCOC(=O)OCc4ccncc4OP(=O)(O)O)c2C3=O)C1 [Compound 72] :: 11.2
3) CC1=NO[C@@]2(CC[C@H](C)N3C[C@H]2n2cc(C(=O)NCc4ccc(F)cc4F)c(=O)c(OCOC(=O)OCCC(C)(C)c4c(CC(=O)N[C@@H](CC(=O)O)C(=O)O)cc(C)cc4OP(=O)(O)O)c2C3=O)C1 [Compound 24] :: 12.3
4) CC1=NO[C@@]2(CC[C@H](C)N3C[C@H]2n2cc(C(=O)NCc4ccc(F)cc4F)c(=O)c(OCOC(=O)OCCC(C)(C)c4c(CC(=O)O)cc(C)cc4OP(=O)(O)O)c2C3=O)C1 [Compound 23] :: 14.6

---

assay-details: physchem
applied-conditions: 23 °C, fassif, thermodynamic from solid
Quick list: solubility thermodynamic per entry.
recorded-endpoint: solubility thermodynamic (µg/mL)

1) CC1=NO[C@@]2(CC[C@H](C)N3C[C@H]2n2cc(C(=O)NCc4ccc(F)cc4F)c(=O)c(OC(=O)N(C)c4ncccc4COP(=O)(O)O)c2C3=O)C1 :: 4900
2) CC1=NO[C@@]2(CC[C@H](C)N3C[C@H]2n2cc(C(=O)NCc4ccc(F)cc4F)c(=O)c(OC(=O)CC(C)(C)c4c(C)cc(C)cc4OP(=O)(O)O)c2C3=O)C1 :: 4300
3) CC1=NO[C@@]2(CC[C@H](C)N3C[C@H]2n2cc(C(=O)NCc4ccc(F)cc4F)c(=O)c(OC(=O)N(C)c4ncccc4CN(CCO)C(=O)OCOP(=O)(O)O)c2C3=O)C1 :: 4460
4) CC1=NO[C@@]2(CC[C@H](C)N3C[C@H]2n2cc(C(=O)NCc4ccc(F)cc4F)c(=O)c(OCOC(=O)CC(C)(C)c4c(CC(=O)N5CCC[C@@H]5C(=O)O)cc(C)cc4OP(=O)(O)O)c2C3=O)C1 :: 5460
5) CC1=NO[C@@]2(CC[C@H](C)N3C[C@H]2n2cc(C(=O)NCc4ccc(F)cc4F)c(=O)c(OC(=O)N(C)c4ncccc4CN(CC(=O)OC(C)(C)C)C(=O)OCOP(=O)(O)O)c2C3=O)C1 :: 4010
6) CC1=NO[C@@]2(CC[C@H](C)N3C[C@H]2n2cc(C(=O)NCc4ccc(F)cc4F)c(=O)c(OCOC(=O)CC(C)(C)c4c(C)cc(C)cc4OP(=O)(O)O)c2C3=O)C1 :: 2260
7) CC1=NO[C@@]2(CC[C@H](C)N3C[C@H]2n2cc(C(=O)NCc4ccc(F)cc4F)c(=O)c(OCOC(=O)OCc4ccncc4OP(=O)(O)O)c2C3=O)C1 :: 2560
8) CC1=NO[C@@]2(CC[C@H](C)N3C[C@H]2n2cc(C(=O)NCc4ccc(F)cc4F)c(=O)c(OCOC(=O)N(C)Cc4ccccc4OP(=O)(O)O)c2C3=O)C1 :: 4500
9) CC1=NO[C@@]2(CC[C@H](C)N3C[C@H]2n2cc(C(=O)NCc4ccc(F)cc4F)c(=O)c(OCc4ccncc4OP(=O)(O)O)c2C3=O)C1 :: 2460
10) CC1=NO[C@@]2(CC[C@H](C)N3C[C@H]2n2cc(C(=O)NCc4ccc(F)cc4F)c(=O)c(OCOC(=O)CC(C)(C)c4c(CC(=O)N[C@@H](CC(=O)O)C(=O)O)cc(C)cc4OP(=O)(O)O)c2C3=O)C1 :: 5280

---

Quick list: solubility thermodynamic per entry.
assay-details: physchem
applied-conditions: 23 °C, fassif, thermodynamic from solid
recorded-endpoint: solubility thermodynamic (µg/mL)

1. CC1=NO[C@@]2(CC[C@H](C)N3C[C@H]2n2cc(C(=O)NCc4ccc(F)cc4F)c(=O)c(OC(=O)N(C)c4ncccc4CN(C)C(=O)OCOP(=O)(O)O)c2C3=O)C1 [Compound 61] :: 4140
2. CC1=NO[C@@]2(CC[C@H](C)N3C[C@H]2n2cc(C(=O)NCc4ccc(F)cc4F)c(=O)c(OCc4ccc(OP(=O)(O)O)cn4)c2C3=O)C1 [Compound 71] :: 3470
3. CC1=NO[C@@]2(CC[C@H](C)N3C[C@H]2n2cc(C(=O)NCc4ccc(F)cc4F)c(=O)c(OCOC(=O)N4CCOC[C@@H]4COP(=O)(O)O)c2C3=O)C1 [Compound 63] :: 5000

---

assay-details: in vitro
applied-conditions: human
Quick list: CC50 per entry.
recorded-endpoint: CC50

1) CC1=NO[C@@]2(CC[C@H](C)N3C[C@H]2n2cc(C(=O)NCc4ccc(F)cc4F)c(=O)c(OC(=O)N(C)c4ncc(C(=O)O)cc4COP(=O)(O)O)c2C3=O)C1 [Compound 4] :: ≥ 50 µM
2) CC1=NO[C@@]2(CC[C@H](C)N3C[C@H]2n2cc(C(=O)NCc4ccc(F)cc4F)c(=O)c(OCOC(=O)N(C)c4ncccc4CN(C)C(=O)OCOP(=O)(O)O)c2C3=O)C1 [Compound 62] :: 14.6 µM
3) CC1=NO[C@@]2(CC[C@H](C)N3C[C@H]2n2cc(C(=O)NCc4ccc(F)cc4F)c(=O)c(OCOC(=O)CC(C)(C)c4c(CC(=O)N5CCOCC5)cc(C)cc4OP(=O)(O)O)c2C3=O)C1 [Compound 58] :: 29 µM

---

assay-details: in vivo
applied-conditions: male, beagle, dog, po, 175 mg
Quick list: bioavailability per entry.
recorded-endpoint: bioavailability (%)

1) COC1=NO[C@@]2(CC[C@H](C)N3C[C@H]2n2cc(C(=O)NCc4ccc(F)cc4F)c(=O)c(O)c2C3=O)C1 [Intermediate C] :: 14.5
2) CC1=NO[C@@]2(CC[C@H](C)N3C[C@H]2n2cc(C(=O)NCc4ccc(F)cc4F)c(=O)c(O)c2C3=O)C1 [Intermediate B] :: 15.6

---

assay-details: in vitro
applied-conditions: human
recorded-endpoint: CC50 (µM)

1. CC1=NO[C@@]2(CC[C@H](C)N3C[C@H]2n2cc(C(=O)NCc4ccc(F)cc4F)c(=O)c(OCc4ccc(OP(=O)(O)O)cc4)c2C3=O)C1 :: 12
2. CC1=NO[C@@]2(CC[C@H](C)N3C[C@H]2n2cc(C(=O)NCc4ccc(F)cc4F)c(=O)c(OCOC(=O)CC(C)(C)c4c(CC(=O)N[C@@H](CCC(=O)O)C(=O)O)cc(C)cc4OP(=O)(O)O)c2C3=O)C1 :: 15.7
3. CC1=NO[C@@]2(CC[C@H](C)N3C[C@H]2n2cc(C(=O)NCc4ccc(F)cc4F)c(=O)c(OCc4ccc(OP(=O)(O)O)cn4)c2C3=O)C1 :: 9.3
4. CC1=NO[C@@]2(CC[C@H](C)N3C[C@H]2n2cc(C(=O)NCc4ccc(F)cc4F)c(=O)c(OCc4ccccc4OP(=O)(O)O)c2C3=O)C1 :: 14.1
5. CC1=NO[C@@]2(CC[C@H](C)N3C[C@H]2n2cc(C(=O)NCc4ccc(F)cc4F)c(=O)c(OC(=O)N(C)c4ncccc4CN(CC(=O)OCc4ccccc4)C(=O)OCOP(=O)(O)O)c2C3=O)C1 :: 12.9
6. CC1=NO[C@@]2(CC[C@H](C)N3C[C@H]2n2cc(C(=O)NCc4ccc(F)cc4F)c(=O)c(OC(=O)N(C)c4ncccc4CN(CC(=O)O)C(=O)OCOP(=O)(O)O)c2C3=O)C1 :: 10.1
7. COC1=NO[C@@]2(CC[C@H](C)N3C[C@H]2n2cc(C(=O)NCc4ccc(F)cc4F)c(=O)c(OC(=O)Cc4ccc(OP(=O)(O)O)cc4)c2C3=O)C1 :: 27.8
8. COC1=NO[C@@]2(CC[C@H](C)N3C[C@H]2n2cc(C(=O)NCc4ccc(F)cc4F)c(=O)c(OCOC(=O)CC(C)(C)c4c(CC(=O)O)cc(C)cc4OP(=O)(O)O)c2C3=O)C1 :: 12.6
9. CC1=NO[C@@]2(CC[C@H](C)N3C[C@H]2n2cc(C(=O)NCc4ccc(F)cc4F)c(=O)c(OC(=O)N(C)c4ncccc4COP(=O)(O)O)c2C3=O)C1 :: 15.9
10. COCCN(Cc1cccnc1N(C)C(=O)Oc1c2n(cc(C(=O)NCc3ccc(F)cc3F)c1=O)[C@@H]1CN(C2=O)[C@@H](C)CC[C@]12CC(C)=NO2)C(=O)OCOP(=O)(O)O :: 13.2
11. CC1=NO[C@@]2(CC[C@H](C)N3C[C@H]2n2cc(C(=O)NCc4ccc(F)cc4F)c(=O)c(OC(=O)N(C)c4ncccc4CN(C)C(=O)OCOP(=O)(O)O)c2C3=O)C1 :: 15.2
